Ref: paper PMC12604490

- Assay procedure: Cytotoxicity on RAW 264.7 macrophages (MTT, 48 h)
- Assay type: cell-based
- Test context: mouse, RAW 264.7 macrophages, Fig 4 heat map, mean CC50, unit inferred; read-out: CC50, heat map, Raw Macrophages
Items are presented alongside their recorded CC50 at 48 h.

{"Compound": "CCOCc1nc2c(N)nc3ccccc3c2n1CC(C)(C)O [Resiquimod, reference compound]", "CC50 at 48 h, µg/mL": 9}
{"Compound": "CCCCc1nc2c(N)nc3ccccc3c2n1Cc1ccc(CN)cc1", "CC50 at 48 h, µg/mL": 25.4}

====

- Assay procedure: Cytotoxicity on RAW 264.7 macrophages (MTT, 48 h)
- Assay type: cell-based
- Test context: mouse, RAW 264.7 macrophages, MTT, 48 hours, mean ± SD; read-out: RAW macrophage CC50
API: label(entry) gives true (1) if the entry's CC50 at 48 h is strictly smaller than 10 µg/mL; on equality or larger values it gives false (0).

{"Compound": "CCCCc1nc2c(N)nc3ccccc3c2n1Cc1ccc(C(N)=O)cc1", "Label": "true (1)"}
{"Compound": "CCCCc1nc2c(N)nc3ccccc3c2n1CC(C)C", "Label": "true (1)"}
{"Compound": "CCCCc1nc2c(N)nc3ccccc3c2n1Cc1cccc(CN)c1", "Label": "true (1)"}
{"Compound": "CCCCc1nc2c(N)nc3ccccc3c2n1Cc1cccc(CNC(=O)OC(C)(C)C)c1", "Label": "true (1)"}
{"Compound": "CCCCc1nc2c(N)nc3ccccc3c2n1Cc1ccc(CO)cc1", "Label": "true (1)"}
{"Compound": "C[C@@H]1[C@H](O)[C@@H](C)/C=C/C=C/C=C/C=C/C=C/C=C/C=C/[C@H](O[C@@H]2O[C@H](C)[C@@H](O)[C@H](N)[C@@H]2O)C[C@@H]2O[C@](O)(C[C@@H](O)C[C@@H](O)[C@H](O)CC[C@@H](O)C[C@@H](O)CC(=O)O[C@H]1C)C[C@H](O)[C@H]2C(=O)O [Amphotericin B, amphotericin B, reference compound]", "Label": "false (0)"}
{"Compound": "CCCCn1cc2c(n1)c(N)nc1ccccc12", "Label": "true (1)"}
{"Compound": "CCCCc1nc2c(N)nc3ccccc3c2n1Cc1ccc(CN)cc1", "Label": "false (0)"}
{"Compound": "CCCCc1nc2c(N)nc3ccccc3c2n1Cc1ccc(Cl)cc1", "Label": "true (1)"}
{"Compound": "CCCCNC(=O)c1ccc(Cn2c(CCCC)nc3c(N)nc4ccccc4c32)cc1", "Label": "false (0)"}
{"Compound": "CCCCc1nc2c(N)nc3ccccc3c2n1Cc1ccc(CNC(=O)OC(C)(C)C)cc1", "Label": "true (1)"}
{"Compound": "CCOCc1nc2c(N)nc3ccccc3c2n1CC(C)(C)O [Resiquimod, reference compound]", "Label": "true (1)"}
{"Compound": "CCCCCCCCCCCCCCCCOP(=O)([O-])OCC[N+](C)(C)C [Miltefosine, miltefosine, reference compound]", "Label": "false (0)"}
{"Compound": "CCCCc1nc2c(N)nc3ccccc3c2n1Cc1ccc(O)c(O)c1", "Label": "false (0)"}

====

- Assay procedure: Cytotoxicity on HeLa cells (MTT, 48 h)
- Format: cell-based, human
- Test context: human, HeLa cells, MTT, 48 hours, mean ± SD; read-out: HeLa cell CC50
Items are presented alongside their recorded CC50 at 48 h.

{"Compound": "CCCCc1nc2c(N)nc3ccccc3c2n1Cc1ccc(CNC(=O)OC(C)(C)C)cc1", "Measurement unit": "µg/mL", "CC50 at 48 h": 4.28}
{"Compound": "CCCCNC(=O)c1ccc(Cn2c(CCCC)nc3c(N)nc4ccccc4c32)cc1", "Measurement unit": "µg/mL", "CC50 at 48 h": 7.46}
{"Compound": "CCCCc1nc2c(N)nc3ccccc3c2n1Cc1ccc(C(N)=O)cc1", "Measurement unit": "µg/mL", "CC50 at 48 h": 4.55}
{"Compound": "CCCCc1nc2c(N)nc3ccccc3c2n1Cc1cccc(CN)c1", "Measurement unit": "µg/mL", "CC50 at 48 h": 4.67}
{"Compound": "C[C@@H]1[C@H](O)[C@@H](C)/C=C/C=C/C=C/C=C/C=C/C=C/C=C/[C@H](O[C@@H]2O[C@H](C)[C@@H](O)[C@H](N)[C@@H]2O)C[C@@H]2O[C@](O)(C[C@@H](O)C[C@@H](O)[C@H](O)CC[C@@H](O)C[C@@H](O)CC(=O)O[C@H]1C)C[C@H](O)[C@H]2C(=O)O [Amphotericin B, amphotericin B, reference compound]", "Measurement unit": "µg/mL", "CC50 at 48 h": 20.2}
{"Compound": "CCCCc1nc2c(N)nc3ccccc3c2n1Cc1ccc(CN)cc1", "Measurement unit": "µg/mL", "CC50 at 48 h": 29.4}
{"Compound": "CCCCc1nc2c(N)nc3ccccc3c2n1Cc1ccc(Cl)cc1", "Measurement unit": "µg/mL", "CC50 at 48 h": 3.86}
{"Compound": "CCCCc1nc2c(N)nc3ccccc3c2n1Cc1cccc(CNC(=O)OC(C)(C)C)c1", "Measurement unit": "µg/mL", "CC50 at 48 h": 8.86}
{"Compound": "CCCCc1nc2c(N)nc3ccccc3c2n1CC(C)C", "Measurement unit": "µg/mL", "CC50 at 48 h": 7.54}
{"Compound": "CCOCc1nc2c(N)nc3ccccc3c2n1CC(C)(C)O [Resiquimod, reference compound]", "Measurement unit": "µg/mL", "CC50 at 48 h": 9}
{"Compound": "CCCCc1nc2c(N)nc3ccccc3c2n1Cc1ccc(CO)cc1", "Measurement unit": "µg/mL", "CC50 at 48 h": 4.75}
{"Compound": "CCCCCCCCCCCCCCCCOP(=O)([O-])OCC[N+](C)(C)C [Miltefosine, miltefosine, reference compound]", "Measurement unit": "µg/mL", "CC50 at 48 h": 32.1}
{"Compound": "CCCCn1cc2c(n1)c(N)nc1ccccc12", "Measurement unit": "µg/mL", "CC50 at 48 h": 4.67}
{"Compound": "CCCCc1nc2c(N)nc3ccccc3c2n1Cc1ccc(O)c(O)c1", "Measurement unit": "µg/mL", "CC50 at 48 h": 32.5}
